For each entry below, report its koff value.
test_system: T1, mouse programmed cell death protein 1 Fc fusion protein (mPD-1-Fc), mPD-1 C60S (aa 25-167) (Mus musculus, UniProt Q02242, stabilised)
T1 construct: not cleaved; source: Expi293F, purified (Protein A, SEC; dimeric fraction); not shown: Fc (human), C-terminal, kept
measurement_notes: SPR; Carterra LSA; Fab from the ammonium sulfate precipitate of the culture supernatant immobilised on a NiHC200M chip; hPD-1 (1-1024 nM) or mPD-1-Fc (4-1024 nM) as analyte, fourfold dilution series, no regeneration; HBS-EP pH 7.4, 25 °C; medians over the spots of a construct, KD = koff/kon
details: one partner purified
I only need the number, in s⁻¹, no unit after it.

Field koff (entry toripalimab Fab L.N58A (Fab, V domains shown, as the heavy chain of Sm3; light chain of Sm3 with this change; numbers count from the chain's first residue; source: Brevibacillus, culture supernatant (ammonium sulfate precipitate); not shown: 6xHis, C-terminal, kept; 6xHN, C-terminal, kept) VH: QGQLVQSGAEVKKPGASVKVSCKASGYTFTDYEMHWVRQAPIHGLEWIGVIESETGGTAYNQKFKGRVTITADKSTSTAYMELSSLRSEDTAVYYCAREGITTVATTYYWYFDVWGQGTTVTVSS VL: DVVMTQSPLSLPVTLGQPASISCRSSQSIVHSNGNTYLEWYLQKPGQSPQLLIYKVSARFSGVPDRFSGSGSGTDFTLKISRVEAEDVGVYYCFQGSHVPLTFGQGTKLEIK ) reads 0.00793

Field koff (entry toripalimab Fab H.G56A (Fab, V domains shown, heavy chain of Sm3 with this change; numbers count from the chain's first residue; as the light chain of Sm3; source: Brevibacillus, culture supernatant (ammonium sulfate precipitate); not shown: 6xHis, C-terminal, kept; 6xHN, C-terminal, kept) VH: QGQLVQSGAEVKKPGASVKVSCKASGYTFTDYEMHWVRQAPIHGLEWIGVIESETAGTAYNQKFKGRVTITADKSTSTAYMELSSLRSEDTAVYYCAREGITTVATTYYWYFDVWGQGTTVTVSS VL: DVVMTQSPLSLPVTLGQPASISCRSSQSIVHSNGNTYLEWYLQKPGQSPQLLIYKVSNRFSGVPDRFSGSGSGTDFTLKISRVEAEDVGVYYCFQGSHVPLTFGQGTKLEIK ) reads 0.00466

Field koff (entry toripalimab Fab L.G34Y (Fab, V domains shown, as the heavy chain of Sm3; light chain of Sm3 with this change; numbers count from the chain's first residue; source: Brevibacillus, culture supernatant (ammonium sulfate precipitate); not shown: 6xHis, C-terminal, kept; 6xHN, C-terminal, kept) VH: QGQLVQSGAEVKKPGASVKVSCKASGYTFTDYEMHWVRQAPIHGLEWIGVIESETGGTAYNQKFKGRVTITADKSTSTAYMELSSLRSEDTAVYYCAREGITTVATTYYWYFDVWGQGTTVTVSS VL: DVVMTQSPLSLPVTLGQPASISCRSSQSIVHSNYNTYLEWYLQKPGQSPQLLIYKVSNRFSGVPDRFSGSGSGTDFTLKISRVEAEDVGVYYCFQGSHVPLTFGQGTKLEIK ) reads 0.00613

Field koff (entry toripalimab Fab L.L101E (Fab, V domains shown, as the heavy chain of Sm3; light chain of Sm3 with this change; numbers count from the chain's first residue; source: Brevibacillus, culture supernatant (ammonium sulfate precipitate); not shown: 6xHis, C-terminal, kept; 6xHN, C-terminal, kept) VH: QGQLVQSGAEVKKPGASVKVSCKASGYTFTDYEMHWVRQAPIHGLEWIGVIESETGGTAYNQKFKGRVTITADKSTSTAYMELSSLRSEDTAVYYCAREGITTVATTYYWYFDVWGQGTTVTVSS VL: DVVMTQSPLSLPVTLGQPASISCRSSQSIVHSNGNTYLEWYLQKPGQSPQLLIYKVSNRFSGVPDRFSGSGSGTDFTLKISRVEAEDVGVYYCFQGSHVPETFGQGTKLEIK ) reads 0.00392

Field koff (entry toripalimab Fab L.L38A (Fab, V domains shown, as the heavy chain of Sm3; light chain of Sm3 with this change; numbers count from the chain's first residue; source: Brevibacillus, culture supernatant (ammonium sulfate precipitate); not shown: 6xHis, C-terminal, kept; 6xHN, C-terminal, kept) VH: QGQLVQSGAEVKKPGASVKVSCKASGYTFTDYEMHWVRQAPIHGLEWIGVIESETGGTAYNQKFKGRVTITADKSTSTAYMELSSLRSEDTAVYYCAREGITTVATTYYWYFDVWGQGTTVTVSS VL: DVVMTQSPLSLPVTLGQPASISCRSSQSIVHSNGNTYAEWYLQKPGQSPQLLIYKVSNRFSGVPDRFSGSGSGTDFTLKISRVEAEDVGVYYCFQGSHVPLTFGQGTKLEIK ) reads 0.00533
